Below, each entry is listed with its recorded viability, T/C.
- Tested on: 494315-158-R-J1-PDC complex spheroid growth, percent test/control
- assay summary: Anticancer human tumor 494315-158-R-J1-PDC patient-derived soft tissue sarcoma cell line growth inhibition [Asc]
- condition summary: second compound 3.16 µM; first compound 1 µM; active compounds read low
measure: viability, T/C (%)

[[record]]
compound = "O=C(c1cc(Cc2n[nH]c(=O)c3ccccc23)ccc1F)N1CCN(C(=O)C2CC2)CC1 + Cc1c(S(C)(=O)=O)c(-c2cc(F)cc(N3CCN(c4ccc(NS(=O)(=O)c5ccc(NC(CCN6CCC(C(=O)OCCCP(=O)(O)O)CC6)CSc6ccccc6)c(S(=O)(=O)C(F)(F)F)c5)cc4)CC3)c2)c(-c2ccc(Cl)cc2)n1C(C)C"
readout_number = 51

[[record]]
compound = "CNC(C)C(=O)NC1CN(S(=O)(=O)c2cccc(S(=O)(=O)N3CCC4CCC(C(=O)NC(c5ccccc5)c5ccccc5)N4C(=O)C(NC(=O)C(C)NC)C3)c2)CCC2CCC(C(=O)NC(c3ccccc3)c3ccccc3)N2C1=O (stereo not drawn) + Cc1c(S(C)(=O)=O)c(-c2cc(F)cc(N3CCN(c4ccc(NS(=O)(=O)c5ccc(NC(CCN6CCC(C(=O)OCCCP(=O)(O)O)CC6)CSc6ccccc6)c(S(=O)(=O)C(F)(F)F)c5)cc4)CC3)c2)c(-c2ccc(Cl)cc2)n1C(C)C"
readout_number = 19.8

[[record]]
compound = "O=C(c1ccc(F)c(F)c1Nc1ccc(I)cc1F)N1CC(O)([C@@H]2CCCCN2)C1 + Cc1c(S(C)(=O)=O)c(-c2cc(F)cc(N3CCN(c4ccc(NS(=O)(=O)c5ccc(NC(CCN6CCC(C(=O)OCCCP(=O)(O)O)CC6)CSc6ccccc6)c(S(=O)(=O)C(F)(F)F)c5)cc4)CC3)c2)c(-c2ccc(Cl)cc2)n1C(C)C"
readout_number = 18.3


----------
- Tested on: 494315-158-R-J1-PDC complex spheroid growth, percent test/control
- assay summary: Anticancer human tumor 494315-158-R-J1-PDC cell line growth inhibition [Asc];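 also: compound exposure lasted seven days after spheroids formed for three days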
- condition summary: second compound 0.1 µM; first compound 0.316 µM; active compounds read low
Quick list: viability, T/C per entry.
measure: viability, T/C (%)

[[record]]
compound = "O=C(c1ccc(F)c(F)c1Nc1ccc(I)cc1F)N1CC(O)([C@@H]2CCCCN2)C1 + CNC(C)C(=O)NC1CN(S(=O)(=O)c2cccc(S(=O)(=O)N3CCC4CCC(C(=O)NC(c5ccccc5)c5ccccc5)N4C(=O)C(NC(=O)C(C)NC)C3)c2)CCC2CCC(C(=O)NC(c3ccccc3)c3ccccc3)N2C1=O"
measure = "viability, T/C"
readout_number = 92.7

[[record]]
compound = "CCN1CCN(Cc2ccc(Nc3ncc(F)c(-c4cc(F)c5nc(C)n(C(C)C)c5c4)n3)nc2)CC1 + Cc1c(S(C)(=O)=O)c(-c2cc(F)cc(N3CCN(c4ccc(NS(=O)(=O)c5ccc(NC(CCN6CCC(C(=O)OCCCP(=O)(O)O)CC6)CSc6ccccc6)c(S(=O)(=O)C(F)(F)F)c5)cc4)CC3)c2)c(-c2ccc(Cl)cc2)n1C(C)C"
measure = "viability, T/C"
readout_number = 77.8

[[record]]
compound = "O=C(c1ccc(F)c(F)c1Nc1ccc(I)cc1F)N1CC(O)([C@@H]2CCCCN2)C1 + Cc1c(S(C)(=O)=O)c(-c2cc(F)cc(N3CCN(c4ccc(NS(=O)(=O)c5ccc(NC(CCN6CCC(C(=O)OCCCP(=O)(O)O)CC6)CSc6ccccc6)c(S(=O)(=O)C(F)(F)F)c5)cc4)CC3)c2)c(-c2ccc(Cl)cc2)n1C(C)C"
measure = "viability, T/C"
readout_number = 72.1

[[record]]
compound = "CCN1CCN(Cc2ccc(Nc3ncc(F)c(-c4cc(F)c5nc(C)n(C(C)C)c5c4)n3)nc2)CC1 + CNC(C)C(=O)NC1CN(S(=O)(=O)c2cccc(S(=O)(=O)N3CCC4CCC(C(=O)NC(c5ccccc5)c5ccccc5)N4C(=O)C(NC(=O)C(C)NC)C3)c2)CCC2CCC(C(=O)NC(c3ccccc3)c3ccccc3)N2C1=O"
measure = "viability, T/C"
readout_number = 57.4

